Hello, the source for this data is paper PMC5540273, in case you need it.

Tested on: GAK;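 note: KINOMEscan kinase panel screen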
Details: concentration: 1 μM, replicates: in singlicate; n = 1
assay-metric: %Inh
Enter the number, and then the unit.

molecule	%Inh
O=C(Nc1cccc(-c2nn3ncccc3c2-c2ccnc(Nc3ccccc3)n2)c1)c1c(F)cccc1F [GSK198271]	31%
COc1cccc(NC(=O)NC2CCN(c3ccnc(Nc4cc(OC)c(OC)c(OC)c4)n3)C2)c1 (centres unmarked) [GSK1379763]	31%
COc1cc(Nc2nccc(-c3c(-c4cccc(NC(=O)c5c(F)cccc5F)c4)nn4ccccc34)n2)cc(OC)c1OC [GSK323521]	28%
Fc1ccc(-c2ncn(C3CCNCC3)c2-c2ccnc(Oc3ccc(-c4ccccc4)cc3)n2)cc1 [SB-245391]	22%
c1ccc(-c2n[nH]cc2Nc2ccnc3ccccc23)nc1 [GW694077]	100%

Provide %Inh values for the following items, in order.
1. O=C(Nc1n[nH]c2cc(-c3ccoc3)ccc12)C1CC1 [SB-738481]
2. CSc1cccc2c(-c3ccncn3)c(-c3ccc(F)cc3)nn12 [GW514786]
3. O=C(Nc1ccccc1F)NC1CCN(c2ccnc(Nc3ccc(F)cc3)n2)CC1 [GSK1379800]
4. Nc1ncnc2c1nc(-c1ccccc1)n2-c1ccccc1 [SKF-97293]
5. COc1cccc(-c2ccc3c(NC(=O)C4CC4)n[nH]c3n2)c1 [SB-710903]
6. Cc1cccc(NC(=O)Nc2ccc(Oc3ncnc4ccn(C)c34)cc2)c1
7. CC(C)c1nc(-c2cccc(NS(=O)(=O)c3c(F)cccc3F)c2F)c(-c2ccnc(Nc3ccc(N4CCOCC4)nc3)n2)s1 [GSK2008607]
8. Cn1cc(-c2ccc3c(c2)CCN3C(=O)Cc2cccc(Cl)c2)c2c(N)ncnc21 [GSK2606590]

Response:
1. 2%
2. 76%
3. 0%
4. 1%
5. 3%
6. 0%
7. 96.1%
8. 33%
